assay: qHTS assay to identify small molecule agonists of the AP-1 signaling pathway - cell viability counter screen (AID 1159525); details: ME-180 (cervical carcinoma) AP-1-bla cells viability, ATP luminescence, 5 h; series mostly up to 76.8 µM; note: nearly all actives have a fitted effect of over 55% in size
Inconclusive results are not listed. The source made the active and inactive calls. Calls come from the whole dose curve.
Response enum: True = active, False = inactive

Example results:
{"columns": ["Compound", "Class"],
 "data": [
  ["CCn1cc[n+](C)c1 (tested in a mixture with another compound)", "False"],
  ["c1csc(-c2ccc(-c3cccs3)s2)c1", "False"],
  ["CSC(C)(C)/C=N/O", "False"],
  ["CCOP(=S)(OCC)SC(CCl)N1C(=O)c2ccccc2C1=O (stereo unspecified)", "False"],
  ["O=Cc1ccccc1", "False"],
  ["N#CSCc1ccccc1", "False"],
  ["CC[C@H](C)[C@H]1O[C@]2(C=C[C@@H]1C)C[C@@H]1C[C@@H](C/C=C(\\C)[C@@H](O[C@H]3C[C@H](OC)[C@@H](O[C@H]4C[C@H](OC)[C@@H](NC)[C@H](C)O4)[C@H](C)O3)[C@@H](C)/C=C/C=C3\\CO[C@@H]4[C@H](O)C(C)=C[C@@H](C(=O)O1)[C@]34O)O2", "True"],
  ["CNC(=O)/C=C(\\C)OP(=O)(OC)OC", "False"]
]}

Please indicate how the test categorized C#CC1(O)CCCCC1 . False

Please indicate how the test categorized CCC[CH2][Sn]([CH2]CCC)([CH2]CCC)[CH2]CCC . True

Please indicate how the test categorized CCCCON=O . False

----------
target: Estrogen receptor beta (Homo sapiens) (UniProt Q92731); assay: qHTS assay to identify small molecule antagonists of the estrogen receptor beta (ER-beta) signaling pathway (AID 1259378); conditions: ER-beta-UAS-bla HEK293T, beta-lactamase FRET ratio, 16 h; series mostly up to 92.4 µM
Sequence (Q92731 whole entry, looked up): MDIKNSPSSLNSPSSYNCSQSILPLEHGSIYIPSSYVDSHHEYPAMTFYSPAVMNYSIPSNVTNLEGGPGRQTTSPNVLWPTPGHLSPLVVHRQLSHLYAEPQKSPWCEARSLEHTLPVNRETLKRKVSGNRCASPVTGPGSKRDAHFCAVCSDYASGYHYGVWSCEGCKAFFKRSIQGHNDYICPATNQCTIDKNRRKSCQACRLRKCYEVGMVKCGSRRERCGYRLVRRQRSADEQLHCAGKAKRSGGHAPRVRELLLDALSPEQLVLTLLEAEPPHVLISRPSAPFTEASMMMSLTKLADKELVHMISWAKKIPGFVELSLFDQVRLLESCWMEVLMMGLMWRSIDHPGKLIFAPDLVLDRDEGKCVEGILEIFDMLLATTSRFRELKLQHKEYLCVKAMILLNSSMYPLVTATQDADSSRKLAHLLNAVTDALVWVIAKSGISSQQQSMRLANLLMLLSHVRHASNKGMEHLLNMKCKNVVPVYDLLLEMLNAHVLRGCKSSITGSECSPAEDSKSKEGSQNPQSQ
Records with an inconclusive call do not appear. Calls of active or inactive are those of the source. Calls follow the shape of the dose curve; as a rule, active = well fitted inhibition curve with a large enough effect in the signal ratio in the repeat runs (not every such curve was filed as active); inconclusive = weak or mixed curves, or effect the other way; inactive = no such curve, though single readings can be large or run the other way; the % refers to the signal ratio.
Response enum: active, inactive

Example results:
{"columns": ["Compound", "Class"],
 "data": [
  ["CCOP(=S)(OCC)SC(CCl)N1C(=O)c2ccccc2C1=O (stereo unspecified)", "active"],
  ["O=C(Nc1ccc(F)cc1F)c1cccnc1Oc1cccc(C(F)(F)F)c1", "inactive"],
  ["C=Cc1cccc(CCl)c1", "inactive"]
]}

Please indicate how the test categorized CC1(C)[C@H](/C=C2\CCSC2=O)[C@@H]1C(=O)OCc1coc(Cc2ccccc2)c1 . inactive

Please indicate how the test categorized CCN(CC)CCN1C(=O)CN=C(c2ccccc2F)c2cc(Cl)ccc21 . inactive

Please indicate how the test categorized CN1[C@@H]2CC[C@H]1CC(O)C2 (stereo partly specified) . inactive

Please indicate how the test categorized COc1nc(C)nc(NC(=O)NS(=O)(=O)c2ccccc2Cl)n1 . inactive

----------
experiment: A CellTox Green Cytotoxicity Assay to monitor cytotoxicity in HepG2 cells - 24 hour (AID 1224878); conditions: CellTox Green fluorescence; series mostly up to 76.8 µM; note: nearly all actives have a fitted effect of over 45% in size; note: potency is the fitted concentration of half-maximal effect
Records with an inconclusive call do not appear. The source made the active and inactive calls. Calls come from the whole dose curve; as a rule, active = well fitted activation curve with a large enough effect in the repeat runs; inconclusive = weak or mixed curves; inactive = flat fitted curve, though single readings scatter.
Observation Type: Potency

Some compounds with known Potency results, for comparison:
{"columns": ["Compound", "Assay Result"],
 "data": [
  ["CCC[CH2][Sn]([CH2]CCC)([CH2]CCC)[O][Sn]([CH2]CCC)([CH2]CCC)[CH2]CCC", "537 nM (active)"],
  ["CC(O)C(=O)[O][Hg][c]1ccccc1 (stereo unspecified)", "2450 nM (active)"],
  ["C=CC(=O)[O][Sn]([CH2]CCC)([CH2]CCC)[CH2]CCC", "692 nM (active)"],
  ["c1ccc2c(c1)cc1ccc3cccc4ccc2c1c34", "inactive"]
]}

The value of Potency measured for the compound Cc1cc2c3c(c1)C(c1ccccc1)=N[C@@H](NC(=O)c1ccncc1)C(=O)N3CC2 turned out to be inactive

The value of Potency measured for the compound O=S1(=O)OCC2C(CO1)C1(Cl)C(Cl)=C(Cl)C2(Cl)C1(Cl)Cl (stereo unspecified) turned out to be inactive
